Values compiled from patent US10577363B2.

- system under test: SMYD3 (Homo sapiens (Human), UniProt Q9H7B4)
- Sequence (Q9H7B4 whole entry): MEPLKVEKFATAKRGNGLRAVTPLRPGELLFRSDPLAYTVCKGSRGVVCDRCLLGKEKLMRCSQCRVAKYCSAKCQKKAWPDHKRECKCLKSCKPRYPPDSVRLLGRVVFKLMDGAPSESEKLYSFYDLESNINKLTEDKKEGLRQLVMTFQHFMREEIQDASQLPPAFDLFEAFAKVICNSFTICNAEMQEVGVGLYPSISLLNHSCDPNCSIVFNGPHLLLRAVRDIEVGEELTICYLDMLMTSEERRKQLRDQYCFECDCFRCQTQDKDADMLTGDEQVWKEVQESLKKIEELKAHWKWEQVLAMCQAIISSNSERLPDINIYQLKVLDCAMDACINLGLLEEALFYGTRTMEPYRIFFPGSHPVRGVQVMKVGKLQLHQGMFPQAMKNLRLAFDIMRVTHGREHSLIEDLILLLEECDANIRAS
- method summary: SMYD3 cell assay (Trimethyl-MEKK2 In-Cell Western in 293T/17 cells)
- Type: cell-based
- applied conditions: 293T/17 cells; read-out: SMYD3 Cell IC50 (μM)*
Let's look at some compounds and their measured IC50.

Answered cases to consult:
Supply IC50 value. Item: O=C(N[C@@H]1CCN(S(=O)(=O)CCN2CCCC2)[C@H](Cc2ccccc2)C1)c1cc(C2CC2)on1 [compound 407] > 10 µM

Supply IC50 value. Item: C[C@H]1C[C@@H](NC(=O)c2cc(C3CC3)on2)CCN1C(=O)N1CCN(Cc2ccccc2)CC1 [compound 478] > 10 µM

Supply IC50 value. Item: CC(=O)Nc1ccc(S(=O)(=O)N2[C@@H]3CC[C@H]2C[C@@H](NC(=O)c2cc(C4CC4)on2)C3)cc1 [compound 403] > 10 µM

Supply IC50 value. Item: C[C@H]1CN(C(=O)[C@H]2CC[C@H](N)CC2)[C@@H](C)C[C@H]1NC(=O)c1cc(C2CC2)on1 [compound 419] > 10 µM

Supply IC50 value. Item: C[C@@H]1C[C@H](NC(=O)c2cc(C3CC3)on2)CCN1C(=O)CC(CN)Cc1ccccc1 (some centres unmarked) [compound 272] > 40 µM

Supply IC50 value. Item: C[C@H]1C[C@@H](NC(=O)c2cc(C3CC3)on2)CCN1C(=O)c1ccc(C(C)(C)N)cc1 [compound 370] > 40 µM

Next:
Supply IC50 value. Item: O=C(NC1CC2CCCC(C1)N2S(=O)(=O)CCN1CCOCC1)c1cc(C2CC2)on1 (centres unmarked) [compound 443] > 10 µM

Supply IC50 value. Item: C[C@@H]1C[C@H](NC(=O)c2cc(C3CC3)on2)CCN1S(=O)(=O)c1cn(C)cn1 [compound 294] > 40 µM

Supply IC50 value. Item: CC1CC(NC(=O)c2cc(C3CC3)on2)CCN1C(=O)Cc1ncc[nH]1 (centres unmarked) [compound 427] > 10 µM

Supply IC50 value. Item: C[C@H]1C[C@@H](NC(=O)c2cc(C3CC3)on2)CCN1C(=O)c1ccc2[nH]cnc2c1 [compound 340] > 40 µM

Supply IC50 value. Item: C[C@H]1C[C@@H](NC(=O)c2cc(C3CC3)on2)CCN1C(=O)CC(CN)Cc1ccccc1 (some centres unmarked) [compound 269] > 40 µM

Supply IC50 value. Item: O=C(NC1CC2CCCC(C1)N2S(=O)(=O)CCCN1CCOCC1)c1cc(C2CC2)on1 (centres unmarked) [compound 410] > 10 µM

Supply IC50 value. Item: C[C@H]1C[C@@H](NC(=O)c2cc(C3CC3)on2)CCN1C(=O)CC1(CN)CCCCC1 [compound 391] > 10 µM

Supply IC50 value. Item: CC(C)CNc1ccc(S(=O)(=O)N2CC[C@@H](NC(=O)c3cc(C4CC4)on3)C[C@H]2C)cn1 [compound 453] > 10 µM
